procedure-summary: yeast display, Sf9 membrane polyspecificity reagent, FACS + sequencing; frameworks hold sequencing errors
quantity-kind: polyreactivity (PSR sort gate)

Check out these entries, answers already filled in.
QVQLVESGGGLGQAGGSLRLSCAASGRIFFGNARGWYRQAPGKEREFVAAISLTGVTTSYADSVKGRFTISRDNAKNTVYLQMNSLKPEDTAVYYCARDYSYYTHAYDYWGQGTQVTVSS low polyreactivity
QVQQQESGGGLVQAGGSLRLSCAASGTIFQLTVMGRYRQAPGKERELVASIDYGGNTNYADSVKGRFTISRDNAKNSVYLQKNSMKPEDTEVYYCEASYESWTTHPYWGQGTQVTVSS low polyreactivity
QVQLVESGGGLVQAGGSLRLSCAASGFTFGKYAMGWYRQAPGKERELVAAITWSGGRTYYADSVKGRFTISRDNAKNTVYLQMNSLKPEDTAVYYCNKVYLYSSLARPYDYWGQGTQVTVSS high polyreactivity
QVQLVESGGGLVQAGGSLRLSCAASGFTFSPNAMGGYRQAPGKERELVAAISKRGASTYYADSVKGRFTISRDNAKNTVYLQMNSLKPEDTAVYYCNVGASARKPYDYWGQGTQVTVSS high polyreactivity
QVQLVETGGGLVQAGGSLRLSCPASGRTFAKYAMGRYRQAPGKERELVAAISDSGGSTYYEDSVKGRFTISRDNAKNTVYLQMNSLKPEDTAVYYCAADGRYTYYWGQGTQVTVSS high polyreactivity
QVQLVESGAGLVQAGGSLRFSCAASGFIFVAYAMGLYRPAPGKERELVAAITSSGGTTYYADSVKGRFTISRDNAKNSVYFQMNSLKPEDTAVYYSAAYRRRSPFEYWGQGTQVNVSS high polyreactivity
QVHLVESGGGLVQAGGSLRLSCAASGRTYGVNAMGRYRQAPGKEREFVAAISKRGGSTYYADSVKGRFTISRDNAKNTVYLQMNSLKPEDTAGYYCAADYTTHYWGQGTQVTVSS high polyreactivity
QVQIVESGGGLVQAGGSLRLSCAASGRIFGAYGMGWYRQAPGKERELVAAISNGGRTSYADSVKGRFTISRDNAKNTVYLQMNSLKPEDTAVYYCAAVYWQWYGAYDYWGQGTQVTVSS high polyreactivity
QVQLGESGGGLVQAGGSLRLSCAASGSTIRRYTMGWYRQAPGKERELDAAITGSGGSTYYADSVKGRFTISRDNAKNTVYLQMNSLKPEDPAVYYCAAPPWRRIVGGIYDYWGQGTQVTVSS high polyreactivity
QVQLVESGGGLVQAGGSLRLSCAASGIIFRAYAMGWYRPAPGKERELVAAISWSGGSTYYADSVKGRFTISRDNAKNTVYLQMNSLKPEDTAVYYCAAESLVYDFDYWGQGTQVTVSS high polyreactivity

Then there is this sequence:
// `QVQLVESGGGLVQAGGSLRLSCAASGSIFPSNAMGWYRQAPGKERELVAAINRDGISNYADSVKGRFTISRDNAKNTVYLQMNSLKPEDTAVYYCAAEFAWQWWEYGYWGQGTQVTVSS` : polyreactivity (PSR sort gate) value = low polyreactivity

----------
procedure-summary: yeast display, Sf9 membrane polyspecificity reagent, FACS + sequencing; frameworks hold sequencing errors
quantity-kind: polyreactivity (PSR sort gate)

Solved cases below.
QVQLVESGGGLVQAGGSLRLSCAASGFIFGANAMGWYRQAPGKERELVADINRGSTYYADSVKGRFTISRDNAKNTVYLQMNSLKPEDTAVYYCNRVYTQTFNPWGFEYWGQGTQVTVSS high polyreactivity
QVQLVESGGGLVQAGGSLRLSCAASGRIFYFNTMGWYRQAHGKEIELVAAITRNGGSTYYADSVKWRFTISRDNAKNTVYFQMNSLKPEDTAVYYCNARYRAAKRGKAWYRYDYWGQGTQVTVSS high polyreactivity
QVQLVESGGGLVQAGGSLRLSCAPSGLTIGHYAMGWYRQAPGKERELVAAISSGGSTYYADSVKGRFTISRDNAKNTVYLQMNSLKPEDTAVYYCAAVTVGTAYYARTFYYWGQGTQVTVSS high polyreactivity
QVQLVESGGGLVQAGGSLRLSCAASGFTFARYVMGWYRQAPGKERELVAAISWRGTRTFYADSVKGRFTISRDNAKNTVYLQMNSLKPEDTAVYYCAADSRPPKYDYWGQGTQVTVSS high polyreactivity
QGQLVESGGGLVQAGGSLRLSCAASGIIFGGYTMGWYRQAPGKERELVAAITKRTDRTYYADSVKGRFTISRDNAKNTVYLQMHSMKPEDTAVYYCATRGGITRPWYGYDYWGQGTQVTVSS high polyreactivity
QVQLVESGRGLVQAGGSLRLSCAASGFTFYRYAMGWYRQAPGKERELVATISASGGSTYYADSVKGRFTISRDNAKNTVYLQMNSLKPVDTAVFYCARYIYRSAFDYWGQGTQVTVSS high polyreactivity
QVQLVESGVGLVQAGGSLRLSCAASGRTFYVYAMGWYRQAPGKERELVAAISLGGGSTYYADSVKGRFTNSRDNGKNTVYLQMNSLKPEDTAVYYCAADITRYRLGRDYWGQATQVTVSS low polyreactivity
QVQLVESGGGLVQAGGSLRLSCTASGFTSRIYAMGWYRQAPVKERELVAAITRGVSTNYSDSVKGRFTISRDNAKNTVYLQMNSLKPEDTAVYYCAARTSGSYPYRTINEYWGQGTQVTVSS high polyreactivity
QVQLVESGGGLVQAGGSLRLSCAASGRISFNAMGWYRQAPGKERELVAAITSSGGRTYYADSVKGRFTISRDNAKNTVYLQMNSLKPEDTAVYYCATGSPGGSPGWGRTTGRLGYWGQGTQVTVSS high polyreactivity
QVQLVESGGGLVQAGGSLRLSCAASGRTLLPNAMGWSRQAPGKERELVASIRDGGDTNYADSVKGRFTISRDNAKNTVYLQMNSLKPEDTAVYYCNADWWAYYSFGHEYWGQGTQVTVSS low polyreactivity

polyreactivity (PSR sort gate) reported for this sequence `QVQLVESGGGLVQAGGSLRLSCAASGRIFYYYDMGWYRQAPGKERELVATMSGIGGSTYYADSVKGLFTISRDHAKNTVYLQMNSLKPEDTAVYYCNADYPTSYPLFKTGFDYWGQGTQVTVSS` : low polyreactivity

Just so you know, measured polyreactivity (PSR sort gate) for `QVQLVESGGGLVQAGGSLRLSCAASGFIFYSYTMVWYRQAPGKERELVASISRRGGITYYADSVKGRFTISRDNAKNTVYLQMNILIPEDTAVFYCAAYSWRRQGDHYDYWGQGTKVTVSS` came out at high polyreactivity
